condition.context: in THF, 298.15 K
experimental.endpoint: solubility (mole fraction)

1. O=[N+]([O-])c1cc[nH]n1	0.00456

---

condition.context: in benzene, 318.15 K
experimental.endpoint: solubility (mole fraction)

1. O=[N+]([O-])c1cc[nH]n1	0.00265

---

condition.context: in ethyl acetate, 303.15 K
experimental.endpoint: solubility (mole fraction)

1) O=[N+]([O-])c1cc[nH]n1	0.0133

---

condition.context: in ethyl acetate, 288.15 K
experimental.endpoint: solubility (mole fraction)

1. O=[N+]([O-])c1cc[nH]n1	0.00728

---

condition.context: in acetone, 323.15 K
experimental.endpoint: solubility (mole fraction)

1) O=[N+]([O-])c1cc[nH]n1	0.0376

---

condition.context: in isopropyl acetate, 303.15 K
experimental.endpoint: solubility (mole fraction)

1) O=[N+]([O-])c1cc[nH]n1	0.00566

---

condition.context: in toluene, 303.15 K
experimental.endpoint: solubility (mole fraction)

1. O=[N+]([O-])c1cc[nH]n1	0.00354

---

condition.context: in n-propanol, 323.15 K
experimental.endpoint: solubility (mole fraction)

1. O=[N+]([O-])c1cc[nH]n1	0.0627

---

condition.context: in ethanol, 283.15 K
experimental.endpoint: solubility (mole fraction)

1) O=[N+]([O-])c1cc[nH]n1	0.0254

---

condition.context: in n-propyl acetate, 283.15 K
experimental.endpoint: solubility (mole fraction)

1) O=[N+]([O-])c1cc[nH]n1	0.00676

---

condition.context: in water, 308.15 K
experimental.endpoint: solubility (mole fraction)

1. O=[N+]([O-])c1cc[nH]n1	0.00105

---

condition.context: in methyl acetate, 323.15 K
experimental.endpoint: solubility (mole fraction)

1) O=[N+]([O-])c1cc[nH]n1	0.032

---

condition.context: in benzene, 288.15 K
experimental.endpoint: solubility (mole fraction)

1. O=[N+]([O-])c1cc[nH]n1	0.00066

---

condition.context: in water, 318.15 K
experimental.endpoint: solubility (mole fraction)

1. O=[N+]([O-])c1cc[nH]n1	0.0017

---

condition.context: in toluene, 313.15 K
experimental.endpoint: solubility (mole fraction)

1) O=[N+]([O-])c1cc[nH]n1	0.00514

---

condition.context: in methanol, 298.15 K
experimental.endpoint: solubility (mole fraction)

1) O=[N+]([O-])c1cc[nH]n1	0.0208

---

condition.context: in n-butyl acetate, 308.15 K
experimental.endpoint: solubility (mole fraction)

1. O=[N+]([O-])c1cc[nH]n1	0.0107

---

condition.context: in n-propyl acetate, 288.15 K
experimental.endpoint: solubility (mole fraction)

1) O=[N+]([O-])c1cc[nH]n1	0.00793

---

condition.context: in toluene, 323.15 K
experimental.endpoint: solubility (mole fraction)

1) O=[N+]([O-])c1cc[nH]n1	0.00729
